Assay: Extractable organofluorine (EOF) and fluorine mass balance in plasma and tissues at 48 h
Format: in vivo, rat
Settings: male, RccHan:WIST, rat, 364 μg PFOA/kg BW, lung, oral, read-out: PFOA-fluorine equivalent
Measured Attribute: concentration at 48 h

O=C(O)C(F)(F)C(F)(F)C(F)(F)C(F)(F)C(F)(F)C(F)(F)C(F)(F)F: 1160 ng/g

* * *

Assay: PFOA in terminal plasma, lung lavage and tissues 48 h after dust exposure
Assay type: in vivo, rat
Settings: male, RccHan:WIST, rat, liver, 364 μg PFOA/kg BW; 48 h, oral gavage; read-out: Liver:plasma ratio of PFOA concentration
Measured Attribute: Kp at 48 h

O=C(O)C(F)(F)C(F)(F)C(F)(F)C(F)(F)C(F)(F)C(F)(F)C(F)(F)F: 4.89

* * *

Experiment: Extractable organofluorine (EOF) and fluorine mass balance in plasma and tissues at 48 h
Type: in vivo, rat
Conditions: male, RccHan:WIST, rat, lung lavage (BALF), 364 μg PFOA/kg BW, lung lavage, oral, read-out: PFOA-fluorine equivalent
Measured Attribute: concentration at 48 h (ng/mL)

O=C(O)C(F)(F)C(F)(F)C(F)(F)C(F)(F)C(F)(F)C(F)(F)C(F)(F)F: 210

* * *

Experiment: Extractable organofluorine (EOF) and fluorine mass balance in plasma and tissues at 48 h
Type: in vivo, rat
Conditions: male, RccHan:WIST, rat, inhaled, 164 μg PFOA/kg BW, lung, inhalation, read-out: PFOA-fluorine equivalent
Measured Attribute: concentration at 48 h (ng/g)

O=C(O)C(F)(F)C(F)(F)C(F)(F)C(F)(F)C(F)(F)C(F)(F)C(F)(F)F: 21500

* * *

Test: PFOA in terminal plasma, lung lavage and tissues 48 h after dust exposure
Type: in vivo, rat
Conditions: male, RccHan:WIST, rat, lung, po, 364 μg PFOA/kg BW, lung, 48 h, oral gavage
Measured Attribute: concentration at 48 h (ng/g)

O=C(O)C(F)(F)C(F)(F)C(F)(F)C(F)(F)C(F)(F)C(F)(F)C(F)(F)F [PFOA, Perfluorooctanoic acid]: 1680

* * *

Assay: Extractable organofluorine (EOF) and fluorine mass balance in plasma and tissues at 48 h
Type: in vivo, rat
Conditions: male, RccHan:WIST, rat, inhaled, 164 μg PFOA/kg BW, plasma, inhalation, not recovery-corrected, read-out: PFOA-fluorine equivalent
Measured Attribute: concentration at 48 h (ng/mL)

O=C(O)C(F)(F)C(F)(F)C(F)(F)C(F)(F)C(F)(F)C(F)(F)C(F)(F)F: 1530

* * *

Experiment: PFOA in terminal plasma, lung lavage and tissues 48 h after dust exposure
Type: in vivo, rat
Conditions: male, RccHan:WIST, rat, lung lavage (BALF), inhaled, 164 μg PFOA/kg BW; lung lavage, 48 h, inhalation
Measured Attribute: concentration at 48 h (ng/mL)

O=C(O)C(F)(F)C(F)(F)C(F)(F)C(F)(F)C(F)(F)C(F)(F)C(F)(F)F: 9980

* * *

Test: PFOA in plasma over time after inhalation or gavage of PFOA-coated house dust
Type: in vivo, rat
Settings: male, RccHan:WIST, rat, plasma, inhaled or intranasal; inhalation group, n = 4, 164 μg PFOA/kg BW
Measured Attribute: Cmax (ng/mL)

O=C(O)C(F)(F)C(F)(F)C(F)(F)C(F)(F)C(F)(F)C(F)(F)C(F)(F)F [PFOA, Perfluorooctanoic acid]: 3100
